Values were extracted from patent US20220064329A1.

Measured TGT activity (% FVIIa) accompanies every entry in the list below.
- target desc: T1, recombinant human activated Factor VII (FVIIa) (human, UniProt P08709 61-212; P08709 213-466, Gla domain: ten glutamate residues may be gamma-carboxylated)
- T1 sequence 1: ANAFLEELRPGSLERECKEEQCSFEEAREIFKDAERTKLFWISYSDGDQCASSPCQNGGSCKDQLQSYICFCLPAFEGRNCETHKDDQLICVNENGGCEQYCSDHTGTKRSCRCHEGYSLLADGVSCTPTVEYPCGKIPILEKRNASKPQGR
- T1 sequence 2: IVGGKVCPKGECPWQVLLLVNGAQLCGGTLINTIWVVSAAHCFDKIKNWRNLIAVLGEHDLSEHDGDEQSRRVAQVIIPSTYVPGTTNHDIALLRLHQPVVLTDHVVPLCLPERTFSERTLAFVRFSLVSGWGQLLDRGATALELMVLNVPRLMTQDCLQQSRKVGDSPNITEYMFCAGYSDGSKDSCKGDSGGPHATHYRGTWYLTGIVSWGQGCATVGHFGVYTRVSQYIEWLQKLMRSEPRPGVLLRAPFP
- protocol summary: cell-based or functional assay
readout: TGT activity (% FVIIa)

INSERT INTO measurements (binder, unit_info, test_result) VALUES
  ('mAb0004 (antibody, V domains shown, fully murine, hybridoma-derived; also called 11F19) VH: QVQLKESGPGLVAPSQSLSITCTVSGFSLTDYGVSWIRQPPGKGLEWLGVIWGGGNTYNNSALKSRLSISKDNSKSQVFLKMNSLQADDTAMYFCAKHGYYGYVMDYWGQGTSVTVSS VL: DIVMTQSHKIMSTLVGDRVSITCKASQDVDPAVAWYQQKPGQYPKLLIYWASTRHTGVPDRFTGSGSGTDFTLTISNVQSEDLADYFCQQYSKYPYTFGGGTKLEIK', '% FVIIa', 75),
  ('mAb0018 (antibody, V domains shown, fully murine, hybridoma-derived; also called 8F19) VH: QITLKESGPGILKPSQTLSLTCSFSGFSLSTSGLGVGWIRQTSGKGLEWLAHIWWDDDKYYYPPLKSQLTISKDTSRNQVFLKITSVDTADTATYYCARRAFYDGYYGPMEYWGQGTSVTVSS VL: DIVLSQSPSSLAVSVGEKVTMSCKSSQSLLYSSNQKNSLAWYQHKPGQSPKLLIYWASTRESGVPDRFTGSGSGTDFTLTISNVKAEDLAVYYCHQYYNYLLTFGPGTKLELK', '% FVIIa', 141),
  ('mAb0007 (antibody, V domains shown, fully murine, hybridoma-derived; also called 11F34) VH: DVQLQESGPGLVEPSQSLSLTCTVTGYSITSDCAWSWIRQFPGNKLEWMGYINYSGSTNYNPSLKSRISITRDTSKNQFFLRLNSVTGEDTATYYCARSVNYYGNSFAVGYWGQGTSVTVSS VL: DIVMTQSPATLSVTPGDRVSLSCRASQSISDYLHWYQHKSHESPRLLIKYVSQPISGIPSRFSGSGSGSEFTLSINSVEPEDVGVYYCQNGHSFPLTFGAGTKLELK', '% FVIIa', 113);
